- TARGET SYSTEM: human LRRK2 (WT-LRRK2) (Homo sapiens)
- Construct: WT-LRRK2 or G2019S-LRRK2 overexpressing cells show expression of LRRK2 pSer1292 and full-length LRRK2
- METHOD: LRRK2 pSer935 quantitative western immunoblot in HEK293 cells stably overexpressing WT-LRRK2
- TEST SETTINGS: WT LRRK2 HEK293 cell line, 2 h treatment, 10 nM-1 μM titration; read-out: calculated half-maximal inhibition (IC50) of LRRK2 pSer935
PARAMETER MEASURED: IC50

> print(dat)
                               entry.smiles  result
1  CC1=C(C(=O)Nc2ccc3[nH]nc(-c4ccnc(N5CCOCC5)c4)c3c2)C(C)(C)n2nnnc2N1C  > 5 µM

* * *

- TARGET SYSTEM: G2019S variant of human LRRK2 (G2019S-LRRK2) (Homo sapiens, UniProt Q5S007, G2019S)
- Construct: WT-LRRK2 or G2019S-LRRK2 overexpressing cells show expression of LRRK2 pSer1292 and full-length LRRK2; expressed in transfected cells
- Sequence (Q5S007 whole entry G2019S): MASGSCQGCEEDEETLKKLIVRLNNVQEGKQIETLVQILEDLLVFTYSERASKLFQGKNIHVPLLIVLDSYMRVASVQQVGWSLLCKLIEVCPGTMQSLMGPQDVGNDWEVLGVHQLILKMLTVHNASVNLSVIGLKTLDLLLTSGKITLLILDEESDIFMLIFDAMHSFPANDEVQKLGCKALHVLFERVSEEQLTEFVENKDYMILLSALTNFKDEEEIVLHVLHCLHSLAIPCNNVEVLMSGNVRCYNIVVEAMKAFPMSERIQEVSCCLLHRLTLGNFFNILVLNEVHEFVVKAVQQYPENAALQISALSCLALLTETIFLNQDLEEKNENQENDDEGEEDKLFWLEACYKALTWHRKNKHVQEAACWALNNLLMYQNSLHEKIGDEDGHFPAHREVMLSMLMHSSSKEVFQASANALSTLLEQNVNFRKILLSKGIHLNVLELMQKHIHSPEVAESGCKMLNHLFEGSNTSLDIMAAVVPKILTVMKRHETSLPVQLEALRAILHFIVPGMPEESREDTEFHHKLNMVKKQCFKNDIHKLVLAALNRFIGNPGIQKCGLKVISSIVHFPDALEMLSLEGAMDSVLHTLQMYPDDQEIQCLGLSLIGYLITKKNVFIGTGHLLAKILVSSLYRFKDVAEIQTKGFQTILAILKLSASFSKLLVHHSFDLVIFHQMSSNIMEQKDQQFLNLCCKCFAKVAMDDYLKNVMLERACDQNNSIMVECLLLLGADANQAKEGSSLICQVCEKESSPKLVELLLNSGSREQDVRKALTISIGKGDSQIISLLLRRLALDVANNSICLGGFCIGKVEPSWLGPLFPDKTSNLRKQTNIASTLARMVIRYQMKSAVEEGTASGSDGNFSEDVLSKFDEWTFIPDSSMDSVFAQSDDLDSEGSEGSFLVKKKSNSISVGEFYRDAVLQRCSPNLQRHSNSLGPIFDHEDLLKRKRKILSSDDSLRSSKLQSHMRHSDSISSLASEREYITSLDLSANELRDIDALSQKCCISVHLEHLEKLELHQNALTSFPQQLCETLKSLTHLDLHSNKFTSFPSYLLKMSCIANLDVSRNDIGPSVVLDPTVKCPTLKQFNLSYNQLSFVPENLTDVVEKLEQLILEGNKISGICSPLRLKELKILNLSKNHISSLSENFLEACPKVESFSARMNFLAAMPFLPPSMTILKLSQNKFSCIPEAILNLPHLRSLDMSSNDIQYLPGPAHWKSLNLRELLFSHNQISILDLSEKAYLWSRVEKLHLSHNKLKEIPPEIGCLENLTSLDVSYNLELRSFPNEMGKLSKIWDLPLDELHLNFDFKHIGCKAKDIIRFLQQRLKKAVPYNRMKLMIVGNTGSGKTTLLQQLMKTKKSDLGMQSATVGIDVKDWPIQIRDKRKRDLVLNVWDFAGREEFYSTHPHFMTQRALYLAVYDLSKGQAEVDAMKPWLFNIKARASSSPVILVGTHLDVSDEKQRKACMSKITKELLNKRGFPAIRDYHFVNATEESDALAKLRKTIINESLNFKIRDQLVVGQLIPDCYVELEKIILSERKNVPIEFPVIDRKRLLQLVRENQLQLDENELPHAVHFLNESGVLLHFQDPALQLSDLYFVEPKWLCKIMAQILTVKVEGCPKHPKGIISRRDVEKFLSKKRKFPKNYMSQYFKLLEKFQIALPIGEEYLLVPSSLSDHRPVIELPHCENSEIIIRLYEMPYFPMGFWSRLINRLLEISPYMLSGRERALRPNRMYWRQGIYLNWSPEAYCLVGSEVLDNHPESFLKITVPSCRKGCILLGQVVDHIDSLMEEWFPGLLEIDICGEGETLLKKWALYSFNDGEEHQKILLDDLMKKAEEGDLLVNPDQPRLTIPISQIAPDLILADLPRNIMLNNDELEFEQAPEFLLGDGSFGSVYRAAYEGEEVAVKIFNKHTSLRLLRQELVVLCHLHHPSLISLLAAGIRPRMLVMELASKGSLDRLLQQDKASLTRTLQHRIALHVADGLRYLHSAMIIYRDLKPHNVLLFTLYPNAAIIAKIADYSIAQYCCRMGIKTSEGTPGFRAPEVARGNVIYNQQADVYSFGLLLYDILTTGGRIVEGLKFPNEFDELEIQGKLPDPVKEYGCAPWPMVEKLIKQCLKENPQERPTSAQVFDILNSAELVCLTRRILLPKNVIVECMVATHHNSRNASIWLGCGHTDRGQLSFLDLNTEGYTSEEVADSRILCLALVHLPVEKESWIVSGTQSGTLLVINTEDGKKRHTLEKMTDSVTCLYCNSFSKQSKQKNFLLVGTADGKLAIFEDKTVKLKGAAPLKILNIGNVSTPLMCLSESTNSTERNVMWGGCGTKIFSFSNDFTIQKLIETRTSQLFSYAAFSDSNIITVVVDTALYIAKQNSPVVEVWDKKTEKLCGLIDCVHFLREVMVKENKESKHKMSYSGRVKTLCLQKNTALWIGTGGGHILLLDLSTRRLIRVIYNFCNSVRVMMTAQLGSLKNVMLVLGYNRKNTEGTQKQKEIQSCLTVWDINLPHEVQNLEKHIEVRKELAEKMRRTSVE
- METHOD: LRRK2 pSer935 quantitative western immunoblot in HEK293 cells stably overexpressing G2019S-LRRK2
- Assay type: cell-based
- TEST SETTINGS: G2019S LRRK2 HEK293 cell line, 2 h treatment, 10 nM-1 μM titration; read-out: calculated half-maximal inhibition (IC50) of LRRK2 pSer935
PARAMETER MEASURED: IC50 (nM)

> print(dat)
                                   molecule  parameter.measured  measured.number
1  CC1=C(C(=O)Nc2ccc3[nH]nc(-c4ccnc(N5CCOCC5)c4)c3c2)C(C)(C)n2nnnc2N1C [EB-42168]                IC50               54
